# Test system: UACC-257
# protocol text: NCI tumour cell line growth inhibition, 48 h
Active and inactive are the calls of the source. No stated cut-off is given here; in the data, active = GI50 up to about 1.1 µM and inactive = higher.
Thanks in advance; please answer with one of these: true (1) = active, false (0) = inactive

Solved cases below.
COc1cc2nc(-c3cccs3)nc(N3CCN(c4ccccc4)CC3)c2cc1OC	false (0)
C=CCC(CCC(C)=O)(C(=O)OCC)C(=O)OCC	false (0)
CCN1CCN(c2nc3ccccc3nc2C(=O)c2ccc(OC)cc2)CC1	false (0)

Could you kindly confirm the outcome this assay logged for CCc1ccccc1/N=N/C(=O)NNc1ccccc1CC ? false (0)

Moving on to Cc1ccc(C)c(NC(=O)CCc2n[nH]c(=S)o2)c1 false (0)

Moving on to CC(=O)O[C@H]1C(=O)[C@@]2(C)[C@H]([C@H](OC(=O)C3CCCCC3)[C@]3(O)C[C@H](OC(=O)[C@H](O)[C@@H](NC(=O)C4CCCCC4)C4CCCCC4)C(C)=C1C3(C)C)[C@]1(OC(C)=O)CO[C@@H]1C[C@@H]2O true (1)

Moving on to CN(C)CCS/C(=N\c1ccccc1)N1C=COC=C1 false (0)

Moving on to CCOC(=O)N1CCC2(CC1)C[C@](Sc1ccccc1)(C(C)=O)[C@H](C)O2 false (0)

Moving on to NS(=O)(=O)c1ccc(/N=N/c2ccc(O)cc2)cc1 false (0)

This collection of values is drawn from ChEMBL document CHEMBL1201862.
